# System: clinically isolated methicillin resistant Staphylococcus aureus
# METHOD: MIC against clinically isolated methicillin resistant Staphylococcus aureus
# Type: cell-based
# EXPERIMENTAL PARAMETERS: 54 strains
Counter-ions that a name gives are not always drawn.
QUANTITY MEASURED: MIC

INSERT INTO assay_data (compound, result) VALUES
  ('CCN1CCN(c2c(F)cc3c(=O)c(C(=O)O)c4scc5n4c3c2N(C)C5)CC1', '0.025 to 0.1 µg/mL'),
  ('CN1CCN(c2c(F)cc3c(=O)c(C(=O)O)c4scc5n4c3c2N(C)C5)CC1', '0.025 to 0.1 µg/mL'),
  ('CN1CCN(c2c(F)cc3c(=O)c(C(=O)O)c4scc5n4c3c2OC5)CC1 [Compound (Y), hydrochloride, reference compound]', '0.05 to 0.39 µg/mL'),
  ('CC1COc2c(N3CCN(C)CC3)c(F)cc3c(=O)c(C(=O)O)cn1c23 (stereo not shown) [Compound (X), reference compound]', '0.39 to 1.56 µg/mL');

----------
# Tested on: Micrococcus luteus ATCC 9341
Structures can show the parent of a compound that is named as a salt.
Binarize MIC at 0.4 µg/mL; below is rule met, at or above is rule not met.

INSERT INTO assay_data (molecule, label) VALUES
  ('CC1COc2c(N3CCN(C)CC3)c(F)cc3c(=O)c(C(=O)O)cn1c23 (stereo not shown) [Compound (X), reference compound]', 'rule not met'),
  ('CCNCC1CCN(c2c(F)cc3c(=O)c(C(=O)O)c4scc5n4c3c2N(C)C5)C1 (stereo not shown) [Compound (M), hydrochloride]', 'rule met'),
  ('CN1Cc2csc3c(C(=O)O)c(=O)c4cc(F)c(N5CCC(N)C5)c1c4n23 (stereo not shown)', 'rule met'),
  ('CN1CCN(c2c(F)cc3c(=O)c(C(=O)O)c4scc5n4c3c2OC5)CC1 [Compound (Y), hydrochloride, reference compound]', 'rule not met'),
  ('CN1Cc2csc3c(C(=O)O)c(=O)c4cc(F)c(N5CCN(O)CC5)c1c4n23', 'rule not met'),
  ('CN1Cc2csc3c(C(=O)O)c(=O)c4cc(F)c(N5CCOCC5)c1c4n23', 'rule met'),
  ('CNCC1CCN(c2c(F)cc3c(=O)c(C(=O)O)c4scc5n4c3c2N(C)C5)C1 (stereo not shown) [Compound (N), hydrochloride]', 'rule met');

----------
In what follows, each item is paired with its MIC for Proteus mirabilis IFO 3849.
Structures can show the parent of a compound that is named as a salt.
QUANTITY MEASURED: MIC

INSERT INTO measurements (compound, quantity_measured, result) VALUES
  ('CN1Cc2csc3c(C(=O)O)c(=O)c4cc(F)c(N5CCCC5)c1c4n23', 'MIC', '0.39 µg/mL'),
  ('CNCC1CCN(c2c(F)cc3c(=O)c(C(=O)O)c4scc5n4c3c2N(C)C5)C1 (stereo not shown) [Compound (N), hydrochloride]', 'MIC', '0.39 µg/mL'),
  ('CC1COc2c(N3CCN(C)CC3)c(F)cc3c(=O)c(C(=O)O)cn1c23 (stereo not shown) [Compound (X), reference compound]', 'MIC', '0.39 µg/mL'),
  ('CN1Cc2csc3c(C(=O)O)c(=O)c4cc(F)c(N5CCNCC5)c1c4n23', 'MIC', '0.1 µg/mL'),
  ('CC1CN(c2c(F)cc3c(=O)c(C(=O)O)c4scc5n4c3c2N(C)C5)CC(C)N1 (stereo not shown) [Compound (E)]', 'MIC', '0.78 µg/mL'),
  ('CN1Cc2csc3c(C(=O)O)c(=O)c4cc(F)c(N5CCOCC5)c1c4n23', 'MIC', '0.1 µg/mL'),
  ('CN1CCN(c2c(F)cc3c(=O)c(C(=O)O)c4scc5n4c3c2OC5)CC1 [Compound (Y), hydrochloride, reference compound]', 'MIC', '0.2 µg/mL'),
  ('CN1Cc2csc3c(C(=O)O)c(=O)c4cc(F)c(N5CCC(O)C5)c1c4n23 (stereo not shown)', 'MIC', '0.1 µg/mL'),
  ('CC1CN(c2c(F)cc3c(=O)c(C(=O)O)c4scc5n4c3c2N(C)C5)CC(C)N1C (stereo not shown)', 'MIC', '0.78 µg/mL'),
  ('CN1Cc2csc3c(C(=O)O)c(=O)c4cc(F)c(N5CCC(N)C5)c1c4n23 (stereo not shown)', 'MIC', '0.1 µg/mL'),
  ('CN1Cc2csc3c(C(=O)O)c(=O)c4cc(F)c(N5CCN(O)CC5)c1c4n23', 'MIC', '0.2 µg/mL'),
  ('CN1CCN(c2c(F)cc3c(=O)c(C(=O)O)c4scc5n4c3c2N(C)C5)CC1', 'MIC', '0.2 µg/mL'),
  ('CCN1CCN(c2c(F)cc3c(=O)c(C(=O)O)c4scc5n4c3c2N(C)C5)CC1', 'MIC', '0.39 µg/mL'),
  ('CC1CN(c2c(F)cc3c(=O)c(C(=O)O)c4scc5n4c3c2N(C)C5)CCN1 (stereo not shown)', 'MIC', '0.2 µg/mL'),
  ('CCNCC1CCN(c2c(F)cc3c(=O)c(C(=O)O)c4scc5n4c3c2N(C)C5)C1 (stereo not shown) [Compound (M), hydrochloride]', 'MIC', '0.39 µg/mL'),
  ('CC1CN(c2c(F)cc3c(=O)c(C(=O)O)c4scc5n4c3c2N(C)C5)CCN1C (stereo not shown)', 'MIC', '0.39 µg/mL');

----------
Listed next: entries and their corresponding MIC.
# Test system: Pseudomonas aeruginosa E-2
# METHOD: Antibacterial activity (MIC), P. aeruginosa E-2
# Assay type: cell-based
# EXPERIMENTAL PARAMETERS: E2; Pseudomonas aeruginosa E-2, Gram -; read-out: Minimum inhibitory concentration (MIC)
QUANTITY MEASURED: MIC

INSERT INTO results (compound, quantity_measured, result) VALUES
  ('CN1CCN(c2c(F)cc3c(=O)c(C(=O)O)c4scc5n4c3c2N(C)C5)CC1', 'MIC', '0.78 µg/mL'),
  ('CN1Cc2csc3c(C(=O)O)c(=O)c4cc(F)c(N5CCN(O)CC5)c1c4n23', 'MIC', '0.78 µg/mL'),
  ('CCN1CCN(c2c(F)cc3c(=O)c(C(=O)O)c4scc5n4c3c2N(C)C5)CC1', 'MIC', '0.78 µg/mL'),
  ('CC1COc2c(N3CCN(C)CC3)c(F)cc3c(=O)c(C(=O)O)cn1c23 (stereo not shown) [Compound (X), reference compound]', 'MIC', '1.56 µg/mL');

----------
Listed next: entries and their corresponding MIC.
# Tested on: Escherichia coli NIHJ JC-2
# METHOD: Antibacterial activity (MIC), E. coli NIHJ JC-2
# Format: cell-based
# EXPERIMENTAL PARAMETERS: NIHJJC2; Escherichia coli NIHJ JC-2, Gram -; read-out: Minimum inhibitory concentration (MIC)
Where a name gives a salt, the structure may show the parent alone.
QUANTITY MEASURED: MIC (µg/mL)

INSERT INTO assay_data (compound, numeric_value) VALUES
  ('CN1CCN(c2c(F)cc3c(=O)c(C(=O)O)c4scc5n4c3c2N(C)C5)CC1', 0.05),
  ('CN1Cc2csc3c(C(=O)O)c(=O)c4cc(F)c(N5CCOCC5)c1c4n23', 0.1),
  ('CCNCC1CCN(c2c(F)cc3c(=O)c(C(=O)O)c4scc5n4c3c2N(C)C5)C1 (centres unmarked) [Compound (M), hydrochloride]', 0.1),
  ('CCN1CCN(c2c(F)cc3c(=O)c(C(=O)O)c4scc5n4c3c2N(C)C5)CC1', 0.1),
  ('CN1Cc2csc3c(C(=O)O)c(=O)c4cc(F)c(N5CCC(N)C5)c1c4n23 (centres unmarked)', 0.05),
  ('CN1Cc2csc3c(C(=O)O)c(=O)c4cc(F)c(N5CCN(O)CC5)c1c4n23', 0.1),
  ('CC1COc2c(N3CCN(C)CC3)c(F)cc3c(=O)c(C(=O)O)cn1c23 (centres unmarked) [Compound (X), reference compound]', 0.1),
  ('CN1CCN(c2c(F)cc3c(=O)c(C(=O)O)c4scc5n4c3c2OC5)CC1 [Compound (Y), hydrochloride, reference compound]', 0.1),
  ('CC1CN(c2c(F)cc3c(=O)c(C(=O)O)c4scc5n4c3c2N(C)C5)CC(C)N1C (centres unmarked)', 0.1),
  ('CNCC1CCN(c2c(F)cc3c(=O)c(C(=O)O)c4scc5n4c3c2N(C)C5)C1 (centres unmarked) [Compound (N), hydrochloride]', 0.1),
  ('CN1Cc2csc3c(C(=O)O)c(=O)c4cc(F)c(N5CCCC5)c1c4n23', 0.2);

----------
# Tested on: Enterobacter cloacae 963
# METHOD: Antibacterial activity (MIC), Enterobacter cloacae 963
# Type: cell-based
# EXPERIMENTAL PARAMETERS: Enterobacter cloacae, 963, Enterobacter cloacae 963, Gram -; read-out: Minimum inhibitory concentration (MIC)
Where a name gives a salt, the structure may show the parent alone.
Listed next: entries and their corresponding MIC.
QUANTITY MEASURED: MIC

INSERT INTO assay_data (compound, result) VALUES
  ('CN1Cc2csc3c(C(=O)O)c(=O)c4cc(F)c(N5CCNCC5)c1c4n23', '0.05 µg/mL'),
  ('CN1CCN(c2c(F)cc3c(=O)c(C(=O)O)c4scc5n4c3c2N(C)C5)CC1', '0.05 µg/mL'),
  ('CN1Cc2csc3c(C(=O)O)c(=O)c4cc(F)c(N5CCC(O)C5)c1c4n23 (stereo not drawn)', '0.2 µg/mL'),
  ('CN1Cc2csc3c(C(=O)O)c(=O)c4cc(F)c(N5CCC(N)C5)c1c4n23 (stereo not drawn)', '0.05 µg/mL'),
  ('CCNCC1CCN(c2c(F)cc3c(=O)c(C(=O)O)c4scc5n4c3c2N(C)C5)C1 (stereo not drawn) [Compound (M), hydrochloride]', '0.2 µg/mL'),
  ('CC1COc2c(N3CCN(C)CC3)c(F)cc3c(=O)c(C(=O)O)cn1c23 (stereo not drawn) [Compound (X), reference compound]', '0.2 µg/mL'),
  ('CC1CN(c2c(F)cc3c(=O)c(C(=O)O)c4scc5n4c3c2N(C)C5)CC(C)N1 (stereo not drawn) [Compound (E)]', '0.2 µg/mL'),
  ('CN1Cc2csc3c(C(=O)O)c(=O)c4cc(F)c(N5CCN(O)CC5)c1c4n23', '0.1 µg/mL'),
  ('CN1Cc2csc3c(C(=O)O)c(=O)c4cc(F)c(N5CCOCC5)c1c4n23', '0.1 µg/mL'),
  ('CCN1CCN(c2c(F)cc3c(=O)c(C(=O)O)c4scc5n4c3c2N(C)C5)CC1', '0.1 µg/mL'),
  ('CNCC1CCN(c2c(F)cc3c(=O)c(C(=O)O)c4scc5n4c3c2N(C)C5)C1 (stereo not drawn) [Compound (N), hydrochloride]', '0.1 µg/mL'),
  ('CC1CN(c2c(F)cc3c(=O)c(C(=O)O)c4scc5n4c3c2N(C)C5)CCN1C (stereo not drawn)', '0.1 µg/mL'),
  ('CC1CN(c2c(F)cc3c(=O)c(C(=O)O)c4scc5n4c3c2N(C)C5)CC(C)N1C (stereo not drawn)', '0.2 µg/mL'),
  ('CN1CCN(c2c(F)cc3c(=O)c(C(=O)O)c4scc5n4c3c2OC5)CC1 [Compound (Y), hydrochloride, reference compound]', '0.1 µg/mL'),
  ('CN1Cc2csc3c(C(=O)O)c(=O)c4cc(F)c(N5CCCC5)c1c4n23', '0.39 µg/mL');

Cited source for all entries: patent US4971967A
